# Tested on: Helicobacter pylori
# assayProcedure: Compound was evaluated for antimicrobial activity against Helicobacter pylori
# Type: functional
measuredParameter: MIC (µg/mL)
Number in µg/mL, nothing else.

Solved entries (count: 4):
1. C#CCNC(=N)Nc1nc(-c2ccc(CNC(C)=O)o2)cs1 | 8.2
2. CC1(C)S[C@@H]2[C@H](NC(=O)[C@H](N)c3ccc(O)cc3)C(=O)N2[C@H]1C(=O)O | 0.021
3. CC(=O)NCc1ccc(-c2csc(NC(=N)NCC3CC3)n2)o1 | 1.46
4. CC(=O)NCc1ccc(-c2csc(NC(=N)NCCN3CCCCC3)n2)o1 | 27

Under Helicobacter pylori, report MIC for CCCCOCC/N=C(\N)Nc1nc(-c2ccc(CNC(C)=O)o2)cs1
1.43
